- target.under.test: YES1 (human) (UniProt P07947)
- Sequence (P07947 whole entry, looked up): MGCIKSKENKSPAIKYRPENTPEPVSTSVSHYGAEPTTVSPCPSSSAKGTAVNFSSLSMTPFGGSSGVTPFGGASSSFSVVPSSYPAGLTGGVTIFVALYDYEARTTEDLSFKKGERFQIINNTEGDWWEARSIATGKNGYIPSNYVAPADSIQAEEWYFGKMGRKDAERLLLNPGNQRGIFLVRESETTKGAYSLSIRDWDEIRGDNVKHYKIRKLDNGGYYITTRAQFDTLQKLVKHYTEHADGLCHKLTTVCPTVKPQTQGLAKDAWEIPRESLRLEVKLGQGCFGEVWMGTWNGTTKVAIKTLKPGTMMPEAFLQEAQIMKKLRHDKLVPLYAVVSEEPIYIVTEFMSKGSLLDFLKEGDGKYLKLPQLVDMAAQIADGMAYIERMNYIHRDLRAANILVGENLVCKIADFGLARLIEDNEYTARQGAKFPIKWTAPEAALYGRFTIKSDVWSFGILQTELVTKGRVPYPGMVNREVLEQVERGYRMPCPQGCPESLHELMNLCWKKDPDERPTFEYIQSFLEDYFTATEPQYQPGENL
- method.description: KINOMEscan competition binding
- condition.label: compound 10.0 µM
Exercise: for every item that follows, state its recorded kinase still bound, per cent of control.
Give bare numbers, in %.

Below, 3 compounds whose answers are already recorded.
>  <compound.structure>
N#Cc1c(NC(=O)c2cccc3ccccc23)sc2c1CCCC2

>  <unit.abbreviation>
%

>  <kinase still bound, per cent of control>
78

$$$$
>  <compound.structure>
O=C(NC1CC1)c1cccc(-c2ccc3c(NC(=O)C4CC4)n[nH]c3c2)c1

>  <unit.abbreviation>
%

>  <kinase still bound, per cent of control>
92

$$$$
>  <compound.structure>
CC[C@@H]1C(=O)N(C)c2cnc(Nc3ccc(C(=O)NC4CCN(C)CC4)cc3OC)nc2N1C1CCCC1

>  <unit.abbreviation>
%

>  <kinase still bound, per cent of control>
100

$$$$

Answer for every listed entry: what is its kinase still bound, per cent of control? The entries follow.
1. Cc1ccc2nc(NCCN)c3ncc(C)n3c2c1
2. Cc1cc([C@@H](C)Nc2ccccc2C(=O)O)c2nc(N3CCOCC3)cc(=O)n2c1

1. 100
2. 100

---

So I've got a bunch of compounds here, and I need their kinase still bound, per cent of control values.
- Tested on: PIK3CA (human), P42336 [Q546K]
- Sequence (P42336 whole entry Q546K, looked up): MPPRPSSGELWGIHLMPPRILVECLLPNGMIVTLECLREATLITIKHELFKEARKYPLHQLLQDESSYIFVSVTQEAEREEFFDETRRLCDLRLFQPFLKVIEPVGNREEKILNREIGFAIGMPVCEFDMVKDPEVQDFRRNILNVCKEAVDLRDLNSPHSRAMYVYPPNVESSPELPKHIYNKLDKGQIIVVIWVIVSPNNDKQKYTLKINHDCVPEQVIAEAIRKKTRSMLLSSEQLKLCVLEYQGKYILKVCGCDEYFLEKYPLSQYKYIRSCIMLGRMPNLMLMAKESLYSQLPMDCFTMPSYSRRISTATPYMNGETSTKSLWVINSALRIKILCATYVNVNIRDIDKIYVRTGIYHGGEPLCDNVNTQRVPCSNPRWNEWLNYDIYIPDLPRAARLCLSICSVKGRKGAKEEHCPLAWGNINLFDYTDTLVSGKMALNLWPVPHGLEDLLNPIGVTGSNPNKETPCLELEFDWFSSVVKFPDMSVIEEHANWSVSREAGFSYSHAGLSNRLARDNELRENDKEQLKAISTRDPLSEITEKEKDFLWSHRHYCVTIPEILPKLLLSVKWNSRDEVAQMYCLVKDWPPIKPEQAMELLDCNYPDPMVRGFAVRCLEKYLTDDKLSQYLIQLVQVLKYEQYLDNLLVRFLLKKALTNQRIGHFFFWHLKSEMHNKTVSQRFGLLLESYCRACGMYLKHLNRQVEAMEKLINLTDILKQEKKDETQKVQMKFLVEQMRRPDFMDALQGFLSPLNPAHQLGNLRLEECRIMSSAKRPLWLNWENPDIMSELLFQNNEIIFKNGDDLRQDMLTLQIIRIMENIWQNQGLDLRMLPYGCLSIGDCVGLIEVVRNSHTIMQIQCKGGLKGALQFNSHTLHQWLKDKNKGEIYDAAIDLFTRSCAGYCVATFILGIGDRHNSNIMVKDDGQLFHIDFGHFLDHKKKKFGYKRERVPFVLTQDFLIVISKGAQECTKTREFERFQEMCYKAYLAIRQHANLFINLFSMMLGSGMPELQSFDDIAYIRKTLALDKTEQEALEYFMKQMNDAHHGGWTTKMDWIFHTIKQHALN
- method.description: KINOMEscan competition binding
- condition.label: compound 10.0 µM
Answers are plain numbers, in %.

These recorded examples may help you get a feel for the data.
>  <compound.structure>
O=C1NC(=O)/C(=C/c2ccc3nccc(-c4ccncc4)c3c2)S1

>  <unit.abbreviation>
%

>  <endpoint.value>
1.3

$$$$
>  <compound.structure>
CCC(=O)N1CCN(c2ccc(-n3c(=O)ccc4cnc5ccc(-c6cnc7ccccc7c6)cc5c43)cc2C(F)(F)F)CC1

>  <unit.abbreviation>
%

>  <endpoint.value>
6.8

$$$$
>  <compound.structure>
COc1cc2ncnc(Nc3cccc(Cl)c3)c2cc1OC

>  <unit.abbreviation>
%

>  <endpoint.value>
82

$$$$
>  <compound.structure>
Cc1ccc(NC(=O)c2cccc(C(C)(C)C#N)c2)cc1Nc1ccc2ncn(C)c(=O)c2c1

>  <unit.abbreviation>
%

>  <endpoint.value>
88

$$$$
>  <compound.structure>
C=CC(=O)Nc1cc(NC(=O)c2ccc(C)c(NC(=O)c3ccno3)c2)cc(C(F)(F)F)c1

>  <unit.abbreviation>
%

>  <endpoint.value>
78

$$$$

Field: kinase still bound, per cent of control. Fill in for each record below.
1. COc1ccc(N(C(=O)Oc2c(C)cccc2C)c2ccnc(Nc3ccc(N4CCN(C)CC4)cc3)n2)c(OC)c1
2. C=CC(=O)Nc1cccc(Nc2nc(N[C@H]3CC[C@H](N(C)C)CC3)nc3c2ncn3C(C)C)c1
3. CCOc1cc2ncc(C#N)c(Nc3ccc(OCc4ccccn4)c(Cl)c3)c2cc1NC(=O)/C=C/CN(C)C
4. COc1cc2ncn(-c3cc(OCc4ccccc4C(F)(F)F)c(C(N)=O)s3)c2cc1OC
5. COc1cc2ncnc(-n3nc(-c4ccccn4)nc3N)c2cc1OC

1. 81
2. 100
3. 100
4. 96
5. 38

---

- target.under.test: UniProt:Q13705
- Sequence (Q13705 whole entry, looked up): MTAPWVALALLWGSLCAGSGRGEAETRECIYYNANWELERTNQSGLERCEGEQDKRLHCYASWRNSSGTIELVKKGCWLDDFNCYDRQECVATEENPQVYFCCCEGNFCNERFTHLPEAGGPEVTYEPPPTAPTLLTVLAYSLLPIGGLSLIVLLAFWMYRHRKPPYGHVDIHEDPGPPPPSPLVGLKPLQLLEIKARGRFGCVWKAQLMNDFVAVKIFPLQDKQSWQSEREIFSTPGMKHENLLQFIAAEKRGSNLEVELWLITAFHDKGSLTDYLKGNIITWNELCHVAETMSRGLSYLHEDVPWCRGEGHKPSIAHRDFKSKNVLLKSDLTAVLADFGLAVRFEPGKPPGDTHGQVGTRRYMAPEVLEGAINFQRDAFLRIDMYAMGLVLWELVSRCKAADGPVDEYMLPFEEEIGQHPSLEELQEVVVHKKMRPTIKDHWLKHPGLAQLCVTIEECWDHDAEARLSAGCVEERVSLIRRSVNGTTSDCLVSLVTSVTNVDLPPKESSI
- method.description: KINOMEscan competition binding
- condition.label: compound 10.0 µM
For each of the compounds below, state its kinase still bound, per cent of control.
Numbers only, in %.

# example entries with known answers
>  <compound.structure>
CCC(=O)N1CCN(c2ccc(-n3c(=O)ccc4cnc5ccc(-c6cnc7ccccc7c6)cc5c43)cc2C(F)(F)F)CC1

>  <kinase still bound, per cent of control (%)>
42

$$$$
>  <compound.structure>
Cc1ccc2nc(NCCN)c3ncc(C)n3c2c1

>  <kinase still bound, per cent of control (%)>
100

$$$$
>  <compound.structure>
CCOc1cc2ncc(C#N)c(Nc3ccc(OCc4ccccn4)c(Cl)c3)c2cc1NC(=O)/C=C/CN(C)C

>  <kinase still bound, per cent of control (%)>
100

$$$$
>  <compound.structure>
Nc1ccc(-c2ccc3ncc4ccc(=O)n(-c5cccc(C(F)(F)F)c5)c4c3c2)cn1

>  <kinase still bound, per cent of control (%)>
97

$$$$
>  <compound.structure>
C=CC(=O)Nc1cccc(Nc2nc(N[C@H]3CC[C@H](N(C)C)CC3)nc3c2ncn3C(C)C)c1

>  <kinase still bound, per cent of control (%)>
91

$$$$
>  <compound.structure>
Cc1ccc(C(=O)Nc2cccc(C(F)(F)F)c2)cc1Nc1cncc(C(N)=O)c1

>  <kinase still bound, per cent of control (%)>
100

$$$$
>  <compound.structure>
COc1cc(N2CCN(C)CC2)ccc1Nc1nc(N)c(C(=O)c2c(Cl)cccc2Cl)s1

>  <kinase still bound, per cent of control (%)>
92

$$$$
>  <compound.structure>
CN(C)C/C=C/C(=O)Nc1cccc(Nc2ncc3c(n2)N(C)c2ccccc2C(=O)N3C)c1

>  <kinase still bound, per cent of control (%)>
9.4

$$$$

Moving on to the next compound.
Quick one: kinase still bound, per cent of control for Cc1cc([C@@H](C)Nc2ccccc2C(=O)O)c2nc(N3CCOCC3)cc(=O)n2c1 ?
100

# credit: the kinase profiling compilation of Christmann-Franck et al. (2016)
